- measurement protocol: yeast display, Sf9 membrane polyspecificity reagent, FACS + sequencing; frameworks hold sequencing errors
property label: polyreactivity (PSR sort gate)

QVQLVESGGGLVQAGGSLPLSCAASGSTFSYYAMGWYRQAPGKERELVAAITSGGSTYYADSVKGRFTISRDNAKNTVYLQMNSLKPEDTAVYYCNAEPYTSSGGYRAYDFDYWGQGTQVTVSS = low polyreactivity
QVQLVESGGGLVQAGGSLRLSCAASGLIFVHYAMGWYRQAPGKEREFVAAITWSGGSKYYADSVKGRFTISRDNAKNTVYLQMNSLKPEDTAVYYCAVDGFRPGTASFGYWGQGTQVTVSS = low polyreactivity
QVQLVESGGGLVQAGGSLRLSCAASGRIFKVYAMGWYRQAPGKERELVATISRGGSTYYADSVKGRFTISRDNAKNTVYLQMNSLKPEDTAVYYCATQRERYYWFGAWSYDYWGQGTQVTVSS = low polyreactivity

---

- measurement protocol: yeast display, Sf9 membrane polyspecificity reagent, FACS + sequencing; frameworks hold sequencing errors
property label: polyreactivity (PSR sort gate)

Here is how some sequences turned out for polyreactivity (PSR sort gate).
QVQLVESGGGLVQAGGSLRLSCAASGRTFQQNAMGWYRQAPGKERELVAAINSRGGRTYYADSVKGRFTISRDTAKNTVYLQMNSLKPEDTAVYYCAARYYWGQGTQVTVSS = high polyreactivity
QVQLVESGGGLVQAGGSLRLSCAASGRTFYPYVMRWYRQAPGKERELVAAITNRGGSTYYADSVKGRFTISRDNAKKTVYLQMNSLKPEDTAVYYCAKRQVGVGHYDHWGQGTQVTVSS = low polyreactivity
QVQLVESGGGLVQAGRSLRLSCAASGSIFSTNAMGWYTQAQGKEREFVAAIDITNYEDSVKGRFTISRDNSKNTVDFQMNSVIPEDTAVYSCIADTYSVVREGDYWGQGTQVTVSS = low polyreactivity
QVQLVESGGGLVQAGGSLGLSCAASGSTFGFYTMGWYRQAPGKERELVATISYSGGDTYYEDSVKGRFTISRDNAKNTVYFQMNSLKPEYTAVYYCAADLGDYVTTYSWLDSWGQGTQVTVSS = low polyreactivity

Could you tell me which polyreactivity (PSR sort gate) is on file for QVQLVESGGGLVQAGGSLRLSCAASGFTFYRNAMGWSRQAPGKERELVARIRGTGGRTYYADSVKGRFTISRDNAKNTVYLQMNSLKPEDSAVYYCARRYHYSLYGYWGQGTQVTVSS ? high polyreactivity

---

- measurement protocol: yeast display, Sf9 membrane polyspecificity reagent, FACS + sequencing; frameworks hold sequencing errors
property label: polyreactivity (PSR sort gate)

QVQLVESGGGLVQAGGSLRLSCAASGSIFYNAMGWYRQAPGKERELVAAITSGGRTYYADSVKGRFTISRDNAKNTVYLQMNSLKPEDTAVDYCAADVRRVRVGKYDYWGQGTQVTVSS = high polyreactivity
HVQLVESGGGLVQAGGSLRLSCAASGLIFKRYAIGGYRKAPGKERELVAAISYSGGSTYYEDSVKGRFTISRDYAKNTVYLQMNSLKPEDTAVYYCNAQSYRSDSAYHYKYDYWGQGTQVTVSS = high polyreactivity
QVQLEESGGGLVQAGGSLRLSCAASGFTFRAYAMGWYRQAPGKERELVAANTYSGDRTYYADSVKGRFTITRDNAKKTVYLQMNSLKPEDTAVYYCAAYGAKVNRPGYYYWGQGTQVTVSS = high polyreactivity

---

- measurement protocol: yeast display, Sf9 membrane polyspecificity reagent, FACS + sequencing; frameworks hold sequencing errors
property label: polyreactivity (PSR sort gate)

QVQLVESGGGLVQAGGSLRLSCAASGRTFGRYTMGWYRQAPGKERELVADITSGWSTYADSVKGRFTISRDNAKNSVYLQMNSLKPEDTAVYYCNADRTYPEPAEYYYWGQGTQVTVSS = low polyreactivity
QVQLVESGGGLVQAGGSLRLSCAASGSTFYGYAMGSYRQAPGKERELVAAISYSGSSTYYADSVKGRFTISRDNAKNTVYLQMNSLKPEDTAVFYCAVDDTHPFGPDGGGDYWGQCTQVTVSS = low polyreactivity

---

- measurement protocol: yeast display, Sf9 membrane polyspecificity reagent, FACS + sequencing; frameworks hold sequencing errors
property label: polyreactivity (PSR sort gate)

QVQLVESGGGLVQAGGSLRLSCAASGRTFKKYAMGWYRQAPGKERELVAAITSSGGSTYYADSVKGRFTISRDNAKNTVYLQMNSLKPEDTAVYYCNTVYRHRQRAKYNYWGQGTQVTVSS = high polyreactivity
QVQLVESGGGLVQAGGSLRLSCAASGLTFTYYAMGWYRQAPGKERELVAAISWSGGSTYYADSVKGRFTISRDNAKNTVYLQMNSLKPEDTAVYYCAAATAYYRYRGGYDYWGQGTQVTVSS = high polyreactivity

---

- measurement protocol: yeast display, Sf9 membrane polyspecificity reagent, FACS + sequencing; frameworks hold sequencing errors
property label: polyreactivity (PSR sort gate)

Here is how some sequences turned out for polyreactivity (PSR sort gate).
QVQLVESGGGLVQAGGSLRLSCAASGGTFNGNTMGWYRQAPGKERELVAVIDWSGGSTYYADSVKGRFTISRDNAKNTVYLQMNSLKPEDTAVYYCNADSDAQFREPKGLYYWGQGTQVTVSS = low polyreactivity
QVQLVESGGGLVQAGGSLRLSCAASGSIFFSYAMGWYRQAPGKERELVAAISTSGGNTYYADSVKGRFTISRDNAKNTVYVQMNSLKPEDTAVYYCNARGSYPPYRSYGYWGQCTQVTVSS = low polyreactivity
QVQLVESGGGLVQAGGSLRLSCDASGSTFPSYTMGWSRQAPGKERELVAVIRLSSGSTYYADSVKGRFTISRDNAKNTVYLQMNSLKPEDTAVYYCNTGRYHYFPNYWYDYWGQGTQVTVSS = low polyreactivity
QVQLVDSGGGLVQAGVRLRLSCAASGNIFSAYAMGWYRQAPGKERELVASIDWNGGRTYYADSVKGRFTISRDNAKNTVYLQMNSLKPEDTAVYYCNAGYSYRKYDYLGQGTQVTVSS = high polyreactivity
QVQLVESGGGLVQAGGSLRLSCAASGSIFEYYAMGWYRQAPGKERELVASITSGGRTYYADSVKGRFTISRDNAKNTVYLQMNSLKPEDTAVYYCAAAYYNWGYTFYWGQGTQVTVSS = high polyreactivity
QVQLVESGGGLVQAGVSLRLSCAASGRTFALNVMGWYRQAPGKERELVAAISRSGGSTYYAESVKGRFTISRDNAKNTVYLQMNSLKPEDTAVYYCAAATHYQSYNRRDYWGQGTQVTVSS = high polyreactivity
QVQLVESGGGLVQAGGSLRLICAASGRTIGRNAMRWSRQAPGKERELVAAISSSGGSTYYADSVKGRFTISRDKAKNTVYLQMNSLKPEDTAVYYCNARGWYGLRKYYYWGQGTQVTVSS = high polyreactivity
QVQLVESGGGLVQAGGSLRLSCAASGSTFSWYAMGWYRQAPGKERELVATITGSGGSTYYADSVKGRFTISRDNAKNTVYLQMNSLKPEDTAVYYCALDRGYTRWIASHSYQYDYWGQGTQETVSS = low polyreactivity

Could you tell me which polyreactivity (PSR sort gate) is on file for QVQLVESGGGLVQAGGSLRLSCAASGRTFVGNAMGWYRQAPGKERELVADITWSGDITYYADSVKGRFTISRDNAKNTVYLQKNSLKPEDTAVYYCAADYHRRRTDYDYWGQGTQVTVSS ? low polyreactivity

Query QVQLVESGGGLVQAGGSLRLSCAASGRIFKGYAMGWYRQAPGKERELVAAITWRGGTTYYADSVKGPFTISRDNAKNTVYLQMNSLKPEDTAVYYCAAANWQRYYYWGQGTQVTVSS next high polyreactivity

Query QVQLVESGGCLVQAGGSLRLSCAASGRTFGFYAMGWYRQAPGKERELVAGITQSGGSTYYADSVKGRFTISRDNAKNTVYLQMNSLKTEDTAVYYCATDYQQLDDYWGQGTQVTVSS next low polyreactivity

Query QVQLVESGGGLVQAGGSLRLSCAASGLTFKTYAMGWYRQAPGKERELVAAISRSGGSTSYADSVKGRFTISRDNAKNTVYLQLNSLIPEDTEVYYCAAKTYEPRKYDYWGQGTQVTVSS next high polyreactivity

Query QVQLVESGGGLVQAGGSLRLSCAASGSTFYAYAMGWYRQAPGKERELVAAISSDGTNYADSVKGRFTISRDNAKNTVYLQMNSLKPEDTAVYYCAADEASSRGYYDYDYWGQGTQVTVSS next low polyreactivity

Query QVQLVESGGGLVQAGGSLRLSCAASGSIFPWYAMGWYRQAPGKERELVAAITISGGSTHYADSVKGRFTISRDNAKNTVYLQMNSLKPEDTAVYYCATPRYPSYEYWGQGTQVTVSS next low polyreactivity

Query QVQLVESGGGLVQAGGSLRLSCAASGSTFYTYVMGGYRQAPGKERELVAAITRSGGITYYADSVKGRFTISRDNAKYTVYLQMNSLKPEDTAVYYCAKDDQTASGFDYWGQGTQVTVSS next low polyreactivity

Query QVQLVESGGGLVQAGGSLRLSCAASGFIFIPNTMGWYRQAPGKERELVASGSTYYADSVKGRFTISRDNAKNTVYLQLNSLKPEDTAVYYCAARYHRYSSEFDYWGQGTQVTVSS next low polyreactivity

Query QVQLVESGGGLVQAGGSLRLSCAASGRIFYHYAMGWYRQAPGKERELVAVIRSTGSTNYADSVKGRFTISRDNAKNTVYLQMNSLKPEDTAVYYCAVRRATYSYWYFNGGYWGQGTQVTVSS next high polyreactivity

Query QVQLVESGGGLVQAGGSLRLSCAASGSIFPFNAMGWYRPAPGKERELVAAITSGGSTNYADSVKGRFTISRDNAKNTVYFQMNSLKPEDTAVYYCAADWRYWRWAFDYWGQGTQVTVSS next high polyreactivity

Query QVQLVESGGGLVQAGGSLRLSCAASGSIFGYYAMGGYRQAPGKERELVAAISVNGGRTYYADSVKGRFTISRDNAKNTVYLQMNSLKPEDTAVYYCAAELVDYITFRGDYYYWGQGTQVTVSS next high polyreactivity

Query QVQLVESGGGLVQAGGSLRLSCAASGRTFALYAMGWYRQAPGKERELVAAITFSGGSTSYADSVKGRFTISRDNAKYTVYLQMNSLKPEDTAVYYCAAYWYSLYYLYPYDYWGQGTQVTVSS next low polyreactivity

Query QVQLVESGGGLVQEGGSLRLSCAASGSIFSTYVMGWYRQAPGKERELVAAISRRGGSTYYADSVKGRFTISRDNAKNTVYLQMNSLKPEDTAVYYCAADGTVGRRDYWGQGTQVTVSS next high polyreactivity
